Tested on: 287954-098-R-J1 tumor spheroid viability
Assay: Anticancer human tumor 287954-098-R-J1 patient-derived Ewing sarcoma cell line growth inhibition; active means viability on the fitted dose curve at most 10% of control; inactive means the rest
Settings: second compound 30 pM; first compound 3.16 µM; spheroids with HUVEC and MSC
Permitted responses: active, inactive

Sample answers from the record:
- COMPOUND: "CC(C)n1c(=O)n(C)c2cnc3cc(F)c(-c4ccc(OCCCN5CCCCC5)nc4)cc3c21 + COc1cc2c(cc1O)CCNC21CSC2c3c(OC(C)=O)c(C)c4c(c3C(COC1=O)N1C(O)C3Cc5cc(C)c(OC)c(O)c5C(C21)N3C)OCO4"
  LABEL: "inactive"
- COMPOUND: "Cc1cc(C)c(CNC(=O)c2cc(-c3ccc(CN4CCOCC4)cc3)cc3c2cnn3C2CCCC2)c(=O)[nH]1 + COc1cc2c(cc1O)CCNC21CSC2c3c(OC(C)=O)c(C)c4c(c3C(COC1=O)N1C(O)C3Cc5cc(C)c(OC)c(O)c5C(C21)N3C)OCO4"
  LABEL: "inactive"
- COMPOUND: "CC1COCCN1c1cc(-c2ccnn2C)c2ccnc(-c3ccn[nH]3)c2n1 (centres undefined) + COc1cc2c(cc1O)CCNC21CSC2c3c(OC(C)=O)c(C)c4c(c3C(COC1=O)N1C(O)C3Cc5cc(C)c(OC)c(O)c5C(C21)N3C)OCO4"
  LABEL: "active"

Moving on to the next compound.
**Q:** For COc1ccc([C@@H](O)c2cc(-c3ncnc4cc(N5CCOCC5)ccc34)c(F)cc2Cl)nn1 + COc1cc2c(cc1O)CCNC21CSC2c3c(OC(C)=O)c(C)c4c(c3C(COC1=O)N1C(O)C3Cc5cc(C)c(OC)c(O)c5C(C21)N3C)OCO4 , which call appears in the assay record?
**A:** inactive

* * *

Test system: 287954-098-R-J1 tumor spheroid viability
Assay: Anticancer human tumor 287954-098-R-J1 cell line growth inhibition;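 further: luminescent signal taken as surrogate of viable cell content; spheroids exposed to compound for 7 days before viability readout; 100% = DMSO vehicle control viability and lower means growth inhibition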
Details: second compound 100 µM; first compound 10 µM; hits give low values; spheroids with HUVEC and MSC
Experimental: Multicellular complex tumor spheroid response to DNA repair inhibitors in combination with DNA-damaging drugs This study explores the anticancer activities of DNA-damaging drugs and inhibitors of DNA damage repair, both as single agents and in combinations. […] Twenty-six patient-derived or established malignant cell lines were evaluated representing sarcoma, melanoma, small cell lung cancer (SCLC), non-small cell lung cancer (NSCLC), as well as bladder, ovarian and pancreatic cancers. […]
Mark Fulfilled for viability, T/C under 80%, Not fulfilled if at or over.

**Q:** Does the reported viability, T/C of the following compound sit strictly below 80%? CC1COCCN1c1cc(-c2ccnn2C)c2ccnc(-c3ccn[nH]3)c2n1 (stereo unspecified) + Cn1nnc2c(C(N)=O)ncn2c1=O
**A:** Fulfilled

**Q:** Then what about the compound [2H]c1nc(C)nc([2H])c1-c1cc(NC[C@@H](C)c2cccc3c(C(=O)NC)ccnc23)ncn1 + Cn1nnc2c(C(N)=O)ncn2c1=O ?
**A:** Not fulfilled

**Q:** Then what about the compound COc1ccc([C@@H](O)c2cc(-c3ncnc4cc(N5CCOCC5)ccc34)c(F)cc2Cl)nn1 + Cn1nnc2c(C(N)=O)ncn2c1=O ?
**A:** Not fulfilled

* * *

System: 287954-098-R-J1 tumor spheroid viability
Assay: Anticancer human tumor 287954-098-R-J1 cell line growth inhibition;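 further: luminescent signal taken as surrogate of viable cell content; spheroids exposed to compound for 7 days before viability readout; 100% = DMSO vehicle control viability and lower means growth inhibition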
Details: second compound 30 pM; first compound 3.16 µM; hits give low values; spheroids with HUVEC and MSC
ENDPOINT: viability, T/C (%)
Number in %, nothing else.

- MOLECULE: "[2H]c1nc(C)nc([2H])c1-c1cc(NC[C@@H](C)c2cccc3c(C(=O)NC)ccnc23)ncn1 + COc1cc2c(cc1O)CCNC21CSC2c3c(OC(C)=O)c(C)c4c(c3C(COC1=O)N1C(O)C3Cc5cc(C)c(OC)c(O)c5C(C21)N3C)OCO4"
  ENDPOINT: "viability, T/C"
  EXPERIMENTAL RESULT: 109

We next turn to a different molecule, shown below.
**Q:** Observed viability, T/C on 287954-098-R-J1 tumor spheroid viability for COc1cc(C)[nH]c(=O)c1CN1CCc2c(Cl)cc(C(OC)C3COC3)c(Cl)c2C1=O (configuration not stated) + COc1cc2c(cc1O)CCNC21CSC2c3c(OC(C)=O)c(C)c4c(c3C(COC1=O)N1C(O)C3Cc5cc(C)c(OC)c(O)c5C(C21)N3C)OCO4 , please.
**A:** 104
